The following compounds are shown together with reported viability values.
Assay: reversal of MRP1-mediated doxorubicin resistance, pilot screen, H69AR cells, doxorubicin co-treatment (AID 601)
Settings: H69AR cells + 2 uM doxorubicin, CellTiter-Glo, 72 h; measured here: viability with 2 uM doxorubicin; at 10 µM; stronger effect = lower value

chemical.structure: CN(C)/C=C(\C#N)c1nc2ccccc2[nH]1
unit.abbreviation: %
viability: 77
//
chemical.structure: CCCn1c(C)cc(C(=O)COc2ncnc3sccc23)c1C
unit.abbreviation: %
viability: 82.3
//
chemical.structure: C=CCn1c(=O)c2ccccc2n2c(SCC(=O)Nc3cc(C)on3)nnc12
unit.abbreviation: %
viability: 87.7
//
chemical.structure: COc1ccc(Cn2c(-c3ccco3)nc3oc4ccccc4c(=O)c3c2=O)cc1
unit.abbreviation: %
viability: 84
//
chemical.structure: CC1(C)CC(=O)C(C(=O)CCCCC(=O)C2C(=O)CC(C)(C)CC2=O)C(=O)C1
unit.abbreviation: %
viability: 88.2
//
chemical.structure: Cc1cc(C)c(S(=O)(=O)Nc2cccnc2)c(C)c1
unit.abbreviation: %
viability: 89.1
